Recorded values, source ChEMBL document CHEMBL1275576.

Would you mind telling me the reported MIC of each entry?
- Test system: Staphylococcus saccharolyticus
- assay.explanation: Antimicrobial activity against Staphylococcus saccharolyticus ATCC 14953 by agar dilution method in presence of 5% laked sheep blood
- Assay type: functional
Give the value in µg/mL but do not write µg/mL after it.

Prompt: MIC for `CC(=N)N1CC[C@H](SC2=C(C(=O)O)N3C(=O)[C@H]([C@@H](C)O)[C@H]3C2)C1` ?
Completion: 0.03

Prompt: MIC for `C[C@@H](O)[C@H]1C(=O)N2C(C(=O)O)=C(S[C@@H]3CN[C@H](CNS(N)(=O)=O)C3)[C@H](C)[C@H]12` ?
Completion: 0.06
